- assay_target: cGMP-specific 3',5'-cyclic phosphodiesterase (Homo sapiens, UniProt O76074)
property_name: IC50 (µM)
Please give a number only; it is taken to be in µM.

# query: IC50 of entry Cc1nc(-c2cnn(C)c2-c2ccc(C(F)(F)F)cc2)c2c(N3CC(F)C3)ncnn12
26

---

- method_description: Ratio of total drug level in brain to plasma in Wistar Han rat at 1 mg/kg, iv after 2 hrs
- Assay type: ADME, organism-based
- Set-up: dose 1 mg/kg, route intravenous
- study_conditions: Wistar Han, brain and plasma, read-out: BPR
property_name: Kp at 2 h
// print number alone

# query: Kp at 2 h of entry COc1ccc(-c2c(-c3nc(C)n4ncnc(N5CCC5)c34)cnn2C)c(C)c1
0.34
